assayed target: MAO-A (monoamine oxidase A) (Homo sapiens)
assay notes: MAO-A activity assay
Format: biochemical
condition summary: 100 μM
property measured: MAO-A inhibition at 100 μM (%)

Task: Provide MAO-A inhibition at 100 μM (%), system MAO-A (monoamine oxidase A) (Homo sapiens), entry "CCCc1cc(O)nc(SCC(=O)N2c3ccccc3Sc3ccccc32)n1"
Output: 34.3 ± 6%

Task: Provide MAO-A inhibition at 100 μM (%), system MAO-A (monoamine oxidase A) (Homo sapiens), entry "O=C(COc1ccc(O)cc1)N1c2ccccc2Sc2ccccc21"
Output: 34.8 ± 4%

Task: Provide MAO-A inhibition at 100 μM (%), system MAO-A (monoamine oxidase A) (Homo sapiens), entry "N#Cc1cc(SCC(=O)N2c3ccccc3Sc3ccccc32)nc2c1CCCC2"
Output: 37.7 ± 8%

Task: Provide MAO-A inhibition at 100 μM (%), system MAO-A (monoamine oxidase A) (Homo sapiens), entry "COc1ccc2nc(SCC(=O)n3c4ccccc4c4ccccc43)nc(C)c2c1"
Output: 36.7 ± 8%

Task: Provide MAO-A inhibition at 100 μM (%), system MAO-A (monoamine oxidase A) (Homo sapiens), entry "Cc1nc2ccccc2nc1SCC(=O)N1c2ccccc2Sc2ccccc21"
Output: 28.1 ± 5%

Task: Provide MAO-A inhibition at 100 μM (%), system MAO-A (monoamine oxidase A) (Homo sapiens), entry "Cc1cc(O)nc(SCC(=O)N2c3ccccc3Sc3ccccc32)n1"
Output: 50.2 ± 7%

Task: Provide MAO-A inhibition at 100 μM (%), system MAO-A (monoamine oxidase A) (Homo sapiens), entry "CCCn1c(SCC(=O)N2c3ccccc3Sc3ccccc32)nc2ccccc21"
Output: 39.1 ± 8%

Task: Provide MAO-A inhibition at 100 μM (%), system MAO-A (monoamine oxidase A) (Homo sapiens), entry "CCCn1c2ccccc2c2nnc(SCC(=O)N3c4ccccc4Sc4ccccc43)nc21"
Output: 28.3 ± 5%

Task: Provide MAO-A inhibition at 100 μM (%), system MAO-A (monoamine oxidase A) (Homo sapiens), entry "O=C(COc1nc2ccccc2s1)N1c2ccccc2Sc2ccccc21"
Output: 28.8 ± 6%

Task: Provide MAO-A inhibition at 100 μM (%), system MAO-A (monoamine oxidase A) (Homo sapiens), entry "O=C(COc1nc2ccccc2s1)n1c2ccccc2c2ccccc21"
Output: 22.3 ± 5%

====

For each entry below, report its MAO-A inhibition at 100 μM (%) value.
assayed target: MAO-A (monoamine oxidase A) (Homo sapiens, UniProt P21397)
Sequence (P21397 whole entry, species assumed): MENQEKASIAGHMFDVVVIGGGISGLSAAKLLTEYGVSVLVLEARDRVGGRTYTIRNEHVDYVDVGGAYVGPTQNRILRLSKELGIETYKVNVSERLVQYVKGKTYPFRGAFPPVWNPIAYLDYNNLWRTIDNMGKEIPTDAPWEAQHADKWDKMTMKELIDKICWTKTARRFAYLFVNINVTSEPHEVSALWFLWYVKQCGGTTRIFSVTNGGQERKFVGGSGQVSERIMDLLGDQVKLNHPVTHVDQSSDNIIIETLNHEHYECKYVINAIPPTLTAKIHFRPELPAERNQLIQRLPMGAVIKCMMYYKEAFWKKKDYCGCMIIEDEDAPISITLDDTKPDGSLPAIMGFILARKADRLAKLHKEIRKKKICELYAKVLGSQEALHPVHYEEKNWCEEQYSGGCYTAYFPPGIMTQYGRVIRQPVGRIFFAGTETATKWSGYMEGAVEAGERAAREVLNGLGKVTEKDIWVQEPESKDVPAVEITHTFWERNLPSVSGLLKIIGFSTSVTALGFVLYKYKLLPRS
assay notes: MAO-A activity assay
Format: biochemical
condition summary: 100 μM
Respond numerically; units are % and should not be typed.

Task: Look up and report measured MAO-A inhibition at 100 μM (%) for this entry: "COc1cc(O)nc(SCC(=O)N2c3ccccc3Sc3ccccc32)n1"
Output: 37.5

Task: Look up and report measured MAO-A inhibition at 100 μM (%) for this entry: "O=C(CSc1nc(O)cc(O)n1)N1c2ccccc2Sc2ccccc21"
Output: 50.7

Task: Look up and report measured MAO-A inhibition at 100 μM (%) for this entry: "O=C(COc1ccccc1)N1c2ccccc2Sc2ccccc21"
Output: 24.8

====

assayed target: ERO1α (Homo sapiens, UniProt Q96HE7)
Sequence (Q96HE7 24-468): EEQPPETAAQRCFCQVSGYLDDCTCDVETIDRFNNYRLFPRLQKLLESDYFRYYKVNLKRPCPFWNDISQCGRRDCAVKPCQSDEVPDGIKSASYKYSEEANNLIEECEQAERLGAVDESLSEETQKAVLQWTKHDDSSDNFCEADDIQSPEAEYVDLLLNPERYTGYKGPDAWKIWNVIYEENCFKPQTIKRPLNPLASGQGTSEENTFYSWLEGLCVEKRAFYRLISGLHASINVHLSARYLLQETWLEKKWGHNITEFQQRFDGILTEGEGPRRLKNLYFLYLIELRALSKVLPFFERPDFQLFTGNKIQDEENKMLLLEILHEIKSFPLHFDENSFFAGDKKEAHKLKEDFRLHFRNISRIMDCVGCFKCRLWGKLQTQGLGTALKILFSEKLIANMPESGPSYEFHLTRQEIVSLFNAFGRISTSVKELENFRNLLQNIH
assay notes: ERO1α activity assay
Assay type: biochemical
condition summary: 20 μM
Decision: ERO1α inhibition at 20 μM (%) >= 70% yields T, all other cases yield F.

Task: State whether the measured ERO1α inhibition at 20 μM (%) reaches 70%, counting equality as reaching it, for "N#Cc1cc(SCC(=O)N2c3ccccc3Sc3ccccc32)nc2c1CCCC2"
Output: T

Task: State whether the measured ERO1α inhibition at 20 μM (%) reaches 70%, counting equality as reaching it, for "COc1cc(O)nc(SCC(=O)N2c3ccccc3Sc3ccccc32)n1"
Output: T

Task: State whether the measured ERO1α inhibition at 20 μM (%) reaches 70%, counting equality as reaching it, for "CCCn1c2ccccc2c2nnc(SCC(=O)N3c4ccccc4Sc4ccccc43)nc21"
Output: F

Task: State whether the measured ERO1α inhibition at 20 μM (%) reaches 70%, counting equality as reaching it, for "CCCc1cc(O)nc(SCC(=O)N2c3ccccc3Sc3ccccc32)n1"
Output: F

Task: State whether the measured ERO1α inhibition at 20 μM (%) reaches 70%, counting equality as reaching it, for "O=C(COc1ccc(O)cc1)N1c2ccccc2Sc2ccccc21"
Output: T

Source listed as patent US20240366624A1.
